# tested.on: T1, human neonatal Fc receptor (hFcRn) (human, UniProt P55899 24-290; P61769 21-119)
# T1 construct: Biotinylated in the ELISA, Octet and yeast assays; also called human FcRn; huFcRn
# experiment: BLI (Octet), association pH 6, dissociation pH 7.4
measured.attribute: binding result

INSERT INTO assay_data (binder, result) VALUES
  ('variant Fc-fragment 5-1-9 (other) EPKSCDKTHTCPPCPAPELLGGPSVFLFPPKPKDTLMISRTPEVTCVVVDVSHEDPEVKFNWYVDGVEVHNAKTKPREEQYNSTYRVVSVLTVLHQDWLNGKEYKCKVSNKALPAPIEKTISKAKGQPREPQVYTLPPSRDELTKNQVSLTCLVKGFYPSDIAVEWESGGCGMPIEFCGGPENNYKTTPPVLDSDGSFFLYSKLTVDKSRWQQGNVFSCSVMHEALHNHYTQKSLSLSPGK', 'binds');
